Assay: MultiTox-Fluor Cytotoxicity Assay - LYMP1-001 - Dead Cells (AID 946);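 also: cells exposed to compound for 16 h; 0% = DMSO and 100% = tetraoctylammonium bromide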
Details: LYMP1-001 lymphoblastoid cells, dead-cell protease fluorescence; series mostly up to 92.2 µM
Results filed as inconclusive are left out. Activity calls are given as the source filed them. Calls follow the shape of the dose curve; as a rule, active = well fitted cell-killing curve with a large enough effect; inconclusive = small, poorly fitted or top-dose-only effect, or effect the other way; inactive = flat fitted curve, though single readings scatter.
Reply using exactly one outcome from true for active, false for inactive

What did this assay record as the result for CC(=O)/C=C/c1ccccc1 ?
false

So what was the verdict on Cc1ccccc1O in this test?
false

* * *

Test system: CRL-7250
Experiment: Cytotoxic Profiling of Annotated Libraries Using Quantitative High-Throughput Screening (AID 1296008); also: % is scaled to controls: 0 for no effect and ±100 for the full control effect; nearly all actives have a fitted effect of over 60% in size
Details: Five cell lines viability, CellTiter-Glo ATP luminescence, 48-72 h; stronger effect = lower value
Results filed as inconclusive are left out. Active and inactive are the calls of the source. The call rests on the fitted dose curve; in most records, active means well fitted inhibition curve with a large enough effect; inconclusive means small, poorly fitted or top-dose-only effect; inactive means flat fitted curve, though single readings scatter.
recorded-metric: max response

// returns reported max response for input CN1C[C@@H]2CN(c3ccc(-c4ccccc4)nn3)C[C@@H]2C1
2.36% (inactive)

What does the record list as max response for CCC(C)C1NC(=O)C(C(C)=O)=C1O (stereo not given) ?
-9.18% (inactive)

Please give the measured max response for this compound: Cc1[nH]c2ccc(Cl)cc2c1CCN(C)C
-0.626% (inactive)

Name the reported max response value associated with the compound CCC(C)/C=C(C)/C=C/C1=CC2=C(Cl)C(=O)C(C)(OC(C)=O)C(=O)C2=CO1 (stereo not given)
-20% (inactive)

Data request, read-out max response, for CC(=O)N1N=C(c2ccc(N)cc2)c2cc3c(cc2C[C@H]1C)OCO3
-0.992% (inactive)

# query: max response of entry CCCCOC(=O)c1ccnc2cc(C(OCCN3CCCCC3)c3ccccc3Cl)sc12 (stereo not given)
-4.2% (inactive)

Dear colleague, I am looking for the recorded max response of the following compound: C[C@]12CC[C@H]3[C@@H](CCC4=C/C(=N/OCC(=O)O)CC[C@@]43C)[C@@H]1CC[C@@H]2O
-2.05% (inactive)

GET /values?readout=max response&item= CCCN(CCC)CCc1ccc(OC)c(OCCc2ccccc2)c1
3.48% (inactive)

Fill in: max response of O=C(CC1NCCC[C@H]1O)Cn1cnc2cc(Br)c(Cl)cc2c1=O (stereo not given in full) is ___
-5.15% (inactive)

Tell me the measured max response of O=C1CN=C(c2ccccc2Cl)c2cc(Br)ccc2N1 , please.
-11.2% (inactive)

For the compound shown here, O=C(N1CCCCC1Cc1ccccc1)n1cc(-c2ccc(-c3ccccc3)cc2)nn1 (stereo not given) , give the reported max response.
2.49% (inactive)

Could you tell me which max response is on file for C/C=C(\C)C(=O)OC1CC2C(CC=C3CC(OC4CC(OC)C(OC5CC(OC)C(OC6CC(OC)C(OC7CC(OC)C(O)C(C)O7)C(C)O6)C(C)O5)C(C)O4)CCC32C)C2(O)CCC(C(C)=O)C12C (stereo not given) ?
-2.08% (inactive)

* * *

Assay: Cell Viability - LYMP2-021 (AID 974);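 also: compound exposure lasts 24 hours at 37 °C; % is scaled to controls: 0 for no effect and ±100 for the full control effect; nearly all actives have a fitted effect of over 55% in size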
Settings: LYMP2-021 lymphoblastoid cells viability; series mostly up to 92.2 µM
Records with an inconclusive call do not appear. Activity calls are given as the source filed them. The call rests on the fitted dose curve; in most records, active means well fitted cell-killing curve with a large enough effect; inconclusive means small, poorly fitted or top-dose-only effect; inactive means flat fitted curve, though single readings scatter.
recorded-metric: outcome

These solved cases illustrate the format of a correct answer.
Cc1ccccc1O: inactive
c1ccc(Nc2ccc3ccccc3c2)cc1: inactive
CCOC(=O)c1ccccc1N: inactive
COC1=CC(=O)OC(CCc2ccc3c(c2)OCO3)C1 (centres undefined): inactive
CC(C)COC(=O)c1ccccc1C(=O)OCC(C)C: inactive
CC(=O)/C=C/c1ccccc1: inactive

Please report the recorded outcome for Oc1c(Cl)c(Cl)c(Cl)c(Cl)c1Cl .
inactive

What value of outcome has been recorded for this entry: COC(=O)c1ccccc1C(=O)OC
inactive

Which value of outcome has been reported for c1ccc2c(c1)-c1cccc3cccc-2c13 in the records?
inactive
